# method_description: Peptide stability in simulated intestinal fluid (SIF)
# Assay type: in vitro ADME
# test_conditions: 10 µM, 37 °C, porcine pancreatin, pH 6.8, 4 h
Recorded SIF (% remaining 4 h) values for a group of molecules are listed next.
// note: answer is a bare numeric in %

[
  {
    "molecule": "CC[C@H](C)[C@@H]1NC(=O)[C@@H]2CCCCNC(=O)CC[C@@H](C(=O)N[C@@H](CCN)C(=O)N[C@@H](Cc3cccnc3)C(=O)NC)NC(=O)[C@](C)(CC(C)C)NC(=O)[C@H](Cc3ccc4ccccc4c3)NC(=O)[C@H](Cc3ccc(OCCN)cc3)NC(=O)[C@H](CCC(=O)N2)NC(=O)[C@H](CCC(N)=O)NC(=O)[C@H](Cc2c[nH]c3ccccc23)NC(=O)[C@H](C(C)C)NC1=O [Compound 60]",
    "SIF (% remaining 4 h) (%)": 71
  },
  {
    "molecule": "CC(C)C[C@@H]1NC(=O)[C@H](Cc2c[nH]c3ccccc23)NC(=O)[C@H](Cc2c[nH]c3ccccc23)NC(=O)[C@@H]2CSCC(=O)CSC[C@H](NC(=O)[C@H]([C@@H](C)O)NC(=O)[C@@H](NC(=O)CN)CSCC(=O)CSC[C@@H](C(=O)N[C@@H](CO)C(N)=O)NC1=O)C(=O)N[C@@H](Cc1c[nH]c3ccccc13)C(=O)N[C@@H](CCC(=O)O)C(=O)N2 (single isomer, unassigned) [I1 (isomer 3), H-GC(1a)TC(2a)WEC(2a)WWLC(1a)S-[NH2], reference compound]",
    "SIF (% remaining 4 h) (%)": 0
  }
]

Then there is this molecule:
Record summary for CC[C@H](C)[C@@H]1NC(=O)[C@@H]2CCCCNC(=O)CC[C@@H](C(=O)N[C@@H](CCN)C(=O)N[C@@H](Cc3cccnc3)C(=O)NC)NC(=O)CNC(=O)[C@H](Cc3ccc4ccccc4c3)NC(=O)[C@H](Cc3ccc(OCCN)cc3)NC(=O)[C@H](CCC(=O)N2)NC(=O)[C@H](CCC(N)=O)NC(=O)[C@H](Cc2c[nH]c3ccccc23)NC(=O)[C@H](C(C)C)NC1=O [Compound 68] : reported SIF (% remaining 4 h) = 0

====

# method_description: Peptide stability in simulated gastric fluid (SGF)
# Type: in vitro ADME
# test_conditions: pig, simulated gastric fluid (SGF) with porcine pepsin (3.2 g/L), pH 1.2, 10 µM, 37 °C, porcine pepsin, pH 1.2, 1 h; read-out: SGF (% remaining 1 h)
Where a SMILES comes first, the peptide text is derived from it. Bridges are numbered along the chain shown (N, C = ends). [ ]: non-standard residue; d: D form. 2Nal = N[C@@H](Cc1ccc2ccccc2c1)C(=O)O; AEF = NCCOc1ccc(C[C@H](N)C(=O)O)cc1; 3Pal = N[C@@H](Cc1cccnc1)C(=O)O; αMeL = CC(C)C[C@](C)(N)C(=O)O; Orn = NCCC[C@H](N)C(=O)O; Dab = NCC[C@H](N)C(=O)O; βAla = NCCC(=O)O
readout_label: remaining at 1 h, 10 µM (%)
Give the quantity in %, number only.

Answered cases to consult:
[
  {
    "compound": "CC[C@H](C)[C@@H]1NC(=O)[C@@H]2CCCCNC(=O)CC[C@@H](C(=O)N[C@@H](CCN)C(=O)NCCc3cccnc3)NC(=O)[C@](C)(CC(C)C)NC(=O)[C@H](Cc3ccc4ccccc4c3)NC(=O)[C@H](Cc3ccc(OCCN)cc3)NC(=O)[C@H](CCC(=O)N2)NC(=O)[C@H](CCC(N)=O)NC(=O)[C@H](Cc2c[nH]c3ccccc23)NC(=O)[C@H](C(C)C)NC1=O [Compound 66]",
    "remaining at 1 h, 10 µM [%]": 98
  },
  {
    "compound": "CC[C@H](C)[C@@H]1NC(=O)[C@@H]2CCCCNC(=O)CC[C@@H](C(=O)N3CCNC3C(=O)N[C@@H](Cc3cccnc3)C(=O)NC)NC(=O)[C@](C)(CC(C)C)NC(=O)[C@H](Cc3ccc4ccccc4c3)NC(=O)[C@H](Cc3ccc(OCCN)cc3)NC(=O)[C@H](CCC(=O)N2)NC(=O)[C@H](CCC(N)=O)NC(=O)[C@H](Cc2c[nH]c3ccccc23)NC(=O)[C@H](C(C)C)NC1=O (stereo partly shown) [Compound 72]",
    "remaining at 1 h, 10 µM [%]": 94
  },
  {
    "compound": "CNC(=O)[C@H](Cc1cccnc1)NC(=O)[C@H](CCN)NC(=O)[C@@H]1CCC(=O)NCCCC[C@H]2CC(=O)NCC(=O)N[C@@H](Cc3c[nH]c4ccccc34)C(=O)N[C@@H](CCC(N)=O)C(=O)N[C@@H](CCC(=O)N2)C(=O)N[C@@H](Cc2ccc(OCCN)cc2)C(=O)N[C@@H](Cc2ccc3ccccc3c2)C(=O)N[C@@](C)(CC(C)C)C(=O)N1 [Compound 99]",
    "remaining at 1 h, 10 µM [%]": 104
  },
  {
    "compound": "CC(=O)N[C@@H](CC(=O)O)C(=O)N[C@H]1CCC(=O)NCCCC[C@@H](C(=O)N[C@@H](CCCNC(=N)N)C(N)=O)NC(=O)[C@H](CC(C)C)NC(=O)[C@H](Cc2ccc3ccccc3c2)NC(=O)[C@H](Cc2c[nH]c3ccccc23)NC(=O)[C@@H]2CSCC(=O)CSC[C@H](NC(=O)[C@H](CO)NC1=O)C(=O)N[C@@H](Cc1c[nH]c3ccccc13)C(=O)N[C@@H](CCC(N)=O)C(=O)N2 [Ref 17, reference compound]",
    "remaining at 1 h, 10 µM [%]": 0
  },
  {
    "compound": "CNC(=O)[C@H](Cc1cccnc1)NC(=O)[C@H](CCN)NC(=O)[C@@H]1CCC(=O)NCCCC[C@@H]2NC(=O)CC[C@H](NC(=O)[C@H](CCC(N)=O)NC(=O)[C@H](Cc3c[nH]c4ccccc34)NC(=O)CCNC2=O)C(=O)N[C@@H](Cc2ccncc2)C(=O)N[C@@H](Cc2ccc3ccccc3c2)C(=O)N[C@@](C)(CC(C)C)C(=O)N1 [Compound 85]",
    "remaining at 1 h, 10 µM [%]": 109
  }
]

For reference, reported remaining at 1 h, 10 µM for CC(C)C[C@]1(C)NC(=O)[C@H](Cc2ccc3ccccc3c2)NC(=O)[C@H](Cc2ccc(OCCN)cc2)NC(=O)[C@@H]2CCNC(=O)CC[C@H](NC(=O)[C@H](CO)NC(=O)Cc3ccc(cc3)CNC(=O)CC[C@@H](C(=O)N[C@@H](CCN)C(=O)N[C@@H](Cc3cccnc3)C(N)=O)NC1=O)C(=O)N[C@@H](Cc1c[nH]c3ccccc13)C(=O)N[C@@H](CCC(N)=O)C(=O)N2 [Ref 122, reference compound] stands at 92

compound CNC(=O)[C@H](Cc1cccnc1)NC(=O)[C@H](CCN)NC(=O)[C@@H]1CCC(=O)NCCCC[C@@H]2NC(=O)CC[C@H](NC(=O)[C@H](CCC(N)=O)NC(=O)[C@H](Cc3c[nH]c4ccccc34)NC(=O)CCN(C)C2=O)C(=O)N[C@@H](Cc2ccc(OCCN)cc2)C(=O)N[C@@H](Cc2ccc3ccccc3c2)C(=O)N[C@@](C)(CC(C)C)C(=O)N1 [Compound 81] , remaining at 1 h, 10 µM observed: 100

Reported remaining at 1 h, 10 µM ( CNC(=O)[C@H](Cc1cccnc1)NC(=O)[C@H](CCN)NC(=O)[C@@H]1CCC(=O)N[C@H]2CCCCNC(=O)CC[C@H](NC(=O)[C@H](CCC(N)=O)NC(=O)[C@H](Cc3c[nH]c4ccccc34)NC(=O)CNC2=O)C(=O)N[C@@H](Cc2ccc(OCCN)cc2)C(=O)N[C@@H](Cc2ccc3ccccc3c2)C(=O)N[C@@](C)(CC(C)C)C(=O)N1 [Compound 104] ) = 100

For record CC[C@H](C)[C@@H]1NC(=O)[C@@H]2CCCCNC(=O)CC[C@@H](C(=O)N[C@@H](Cc3cn(C)cn3)C(=O)N[C@@H](Cc3cccnc3)C(=O)NC)NC(=O)[C@](C)(CC(C)C)NC(=O)[C@H](Cc3ccc4ccccc4c3)NC(=O)[C@H](Cc3ccc(OCCN)cc3)NC(=O)[C@H](CCC(=O)N2)NC(=O)[C@H](CCC(N)=O)NC(=O)[C@H](Cc2c[nH]c3ccccc23)NC(=O)[C@H](C(C)C)NC1=O [Compound 73] the listed remaining at 1 h, 10 µM is 100

The compound listed as CNC(=O)[C@H](Cc1cccnc1)NC(=O)[C@H](CCN)NC(=O)[C@@H]1CCC(=O)NCCC[C@@H]2NC(=O)CC[C@H](NC(=O)[C@H](CCC(N)=O)NC(=O)[C@H](Cc3c[nH]c4ccccc34)NC(=O)CCNC2=O)C(=O)N[C@@H](Cc2ccc(OCCN)cc2)C(=O)N[C@@H](Cc2ccc3ccccc3c2)C(=O)N[C@@](C)(CC(C)C)C(=O)N1 [Compound 91] ([Orn][βAla]WQE[AEF][2Nal][αMeL]E[Dab][3Pal]-NHMe; lactam 1-9, N-5) shows remaining at 1 h, 10 µM equal to 116
